Molecular target: T1, His-tagged cynomolgus monkey TfR ectodomain (cyTFRC_89_760; mature protein) (cynomolgus monkey (Macaca fascicularis), UniProt Q5RDH6 89-760 (Pongo abelii entry))
T1 construct: also called cTfR; cTfR ectodomain
T1 chain: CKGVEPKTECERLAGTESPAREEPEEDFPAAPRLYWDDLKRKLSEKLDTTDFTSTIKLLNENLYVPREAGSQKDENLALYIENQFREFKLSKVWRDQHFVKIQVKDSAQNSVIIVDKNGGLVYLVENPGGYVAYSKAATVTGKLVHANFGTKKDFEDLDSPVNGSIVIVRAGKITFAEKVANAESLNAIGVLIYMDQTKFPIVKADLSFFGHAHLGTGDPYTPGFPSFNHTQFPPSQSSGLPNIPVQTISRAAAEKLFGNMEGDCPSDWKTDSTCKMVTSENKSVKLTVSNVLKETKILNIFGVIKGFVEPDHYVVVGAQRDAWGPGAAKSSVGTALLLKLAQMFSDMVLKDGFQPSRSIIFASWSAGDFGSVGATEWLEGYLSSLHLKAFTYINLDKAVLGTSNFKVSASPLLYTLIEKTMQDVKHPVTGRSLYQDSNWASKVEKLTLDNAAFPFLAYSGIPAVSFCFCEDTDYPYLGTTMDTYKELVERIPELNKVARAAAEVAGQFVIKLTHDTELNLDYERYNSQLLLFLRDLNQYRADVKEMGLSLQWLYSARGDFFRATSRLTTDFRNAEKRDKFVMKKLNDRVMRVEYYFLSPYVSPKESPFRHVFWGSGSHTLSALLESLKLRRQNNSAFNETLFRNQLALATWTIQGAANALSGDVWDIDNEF
Assay: SPR; KD on cTfR against KD on hTfR
endpoint: Cynomolgus/human KD ratio

531_1L2_variant3 Fab (Fab, V domains shown, Humanized Fab; The His-tag was removed with TEV protease before SPR) VH: EVQLLESGGGLVQPGGSLRLSCAASGYTFTRYWLNWVRQAPGKGLEWIGMIDPSVSETHYADSVKGRATLSVDKSKNTAYLQMNSLRAEDTAVYYCSQIRLPYYYAMDSWGQGTTVTVSS VL: DIQMTQSPSSLSASVGDRVTITCRASQDINSFLNWYQQKPGKAVKLLIYYTSRLQSGVPSRFSGSGSGTDYTLTISSLQPEDFATYFCQQGNTLPRTFGGGTKVEIK ... 1.1

Noted for 531_1L2_variant6 Fab (Fab, V domains shown, Humanized Fab; The His-tag was removed with TEV protease before SPR) VH: EVQLLESGGGLVQPGGSLRLSCAASGYTFTRYWLNWVRQAPGKGLEWIGMIDPSVSETHYADSVKGRATLSVDKSKNTAYLQMNSLRAEDTAVYYCSQIRLPYYYAMDSWGQGTTVTVSS VL: DIQMTQSPSSLSASVGDRVTITCRASQDISSFLNWYQQKPGKAVKLLIYYTSRLQSGVPSRFSGSGSGTDYTLTISSLQPEDFATYFCQQGNTLPRTFGGGTKVEIK : its Cynomolgus/human KD ratio reads 3.9

Noted for 531_1L2_variant14 Fab (Fab, V domains shown, Humanized Fab; The His-tag was removed with TEV protease before SPR) VH: QVQLVQSGAEVKKPGASVKVSCKASDYTFTRYWLNWVRQAPGQGLEWMGMIDPSVSETHYAQKFQGRVTMTRDTSTSTVYMELSSLRSEDTAVYYCSQIRLPYYYAMDSWGQGTTVTVSS VL: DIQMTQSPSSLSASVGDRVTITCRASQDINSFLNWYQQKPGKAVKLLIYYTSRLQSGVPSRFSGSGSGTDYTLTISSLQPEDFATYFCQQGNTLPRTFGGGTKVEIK : its Cynomolgus/human KD ratio reads 8.7

Noted for 531v25 Fab (Fab, V domains shown, The His-tag was removed with TEV protease before SPR) VH: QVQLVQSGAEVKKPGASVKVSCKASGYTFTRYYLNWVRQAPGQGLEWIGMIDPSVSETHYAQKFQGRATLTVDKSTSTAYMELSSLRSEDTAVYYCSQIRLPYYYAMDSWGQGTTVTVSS VL: DIQMTQSPSSLSASVGDRVTITCRASQDISSFLNWYQQKPGKAPKLLIYYTSRLQSGVPSRFSGSGSGTDYTLTISSLQPEDFATYYCQQGNTLPRTFGGGTKVEIKR : its Cynomolgus/human KD ratio reads 12.5

Noted for 531_1L2_variant17 Fab (Fab, V domains shown, Humanized Fab; The His-tag was removed with TEV protease before SPR) VH: QVQLVQSGAEVKKPGASVKVSCKASDYTFTRYWLNWVRQAPGQGLEWIGMIDPSVSETHYAQKFQGRATLTVDKSTSTAYMELSSLRSEDTAVYYCSQIRLPYYYAMDSWGQGTTVTVSS VL: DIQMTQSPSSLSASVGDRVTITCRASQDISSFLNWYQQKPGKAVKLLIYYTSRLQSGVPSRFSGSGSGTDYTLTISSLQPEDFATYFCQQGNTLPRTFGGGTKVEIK : its Cynomolgus/human KD ratio reads 4.9
